# Assay system: T1, human PRLR on cells (endogenous on T47D, T47D#11, MCF7); introduced in HEK293/hPRLR/STAT5-Luc, 293/hPRLR, … (human, UniProt P16471 25-622)
# T1 sequence: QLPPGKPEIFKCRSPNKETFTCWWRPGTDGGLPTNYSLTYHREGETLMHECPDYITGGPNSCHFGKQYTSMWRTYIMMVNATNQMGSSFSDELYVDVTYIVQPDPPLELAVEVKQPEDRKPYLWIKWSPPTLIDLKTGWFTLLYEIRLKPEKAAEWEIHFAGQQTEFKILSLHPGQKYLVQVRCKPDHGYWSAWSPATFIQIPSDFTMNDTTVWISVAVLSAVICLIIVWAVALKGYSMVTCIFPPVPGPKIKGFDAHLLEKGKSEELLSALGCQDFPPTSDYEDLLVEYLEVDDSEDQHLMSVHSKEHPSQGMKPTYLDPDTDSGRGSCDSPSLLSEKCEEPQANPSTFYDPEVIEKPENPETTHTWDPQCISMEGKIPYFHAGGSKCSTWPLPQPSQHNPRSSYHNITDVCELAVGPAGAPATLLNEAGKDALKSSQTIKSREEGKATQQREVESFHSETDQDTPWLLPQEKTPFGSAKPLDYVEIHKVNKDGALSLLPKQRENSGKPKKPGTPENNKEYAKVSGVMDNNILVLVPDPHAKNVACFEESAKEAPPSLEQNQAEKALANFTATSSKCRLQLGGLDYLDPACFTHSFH
# Experiment description: cell-based or functional assay
Reported property: IC50 of Blocking 5 nM PRL [M] (STAT5-Luc reporter, HEK293/hPRLR/STAT5-Luc cells)

So what does the record say about IC50 of Blocking 5 nM PRL [M] (STAT5-Luc reporter, HEK293/hPRLR/STAT5-Luc cells) for H1H6765P (antibody, human IgG1, V domains shown, human IgG1 Fc (H1H)) VH: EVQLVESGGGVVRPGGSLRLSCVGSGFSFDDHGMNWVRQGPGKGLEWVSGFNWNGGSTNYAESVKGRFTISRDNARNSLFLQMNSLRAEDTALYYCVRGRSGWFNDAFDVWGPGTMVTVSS VL: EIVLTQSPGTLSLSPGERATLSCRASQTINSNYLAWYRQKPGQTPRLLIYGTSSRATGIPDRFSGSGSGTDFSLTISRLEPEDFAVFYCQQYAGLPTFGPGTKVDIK ?
3.3e-11 M
